- ASSAY_TARGET: T1, ZFP SBS#408 (synthetic)
- T1 chain: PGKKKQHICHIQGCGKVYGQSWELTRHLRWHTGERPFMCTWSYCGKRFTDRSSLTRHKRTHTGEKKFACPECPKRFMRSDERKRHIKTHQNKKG
- MEASUREMENT_NOTES: EMSA
- CONDITION_LABEL: tags: MBP fusion

BINDER | Kd
GCGGCCGCA (dsDNA) DNA 1: GCGGCCGCA DNA 2: TGCGGCCGC | 380 nM
